Source listed as patent US20260092071A1.

Recorded measurements of Dmax, one per entry
# assayedSystem: SMARCA4 (Homo sapiens, UniProt P51532)
# Sequence (P51532 whole entry): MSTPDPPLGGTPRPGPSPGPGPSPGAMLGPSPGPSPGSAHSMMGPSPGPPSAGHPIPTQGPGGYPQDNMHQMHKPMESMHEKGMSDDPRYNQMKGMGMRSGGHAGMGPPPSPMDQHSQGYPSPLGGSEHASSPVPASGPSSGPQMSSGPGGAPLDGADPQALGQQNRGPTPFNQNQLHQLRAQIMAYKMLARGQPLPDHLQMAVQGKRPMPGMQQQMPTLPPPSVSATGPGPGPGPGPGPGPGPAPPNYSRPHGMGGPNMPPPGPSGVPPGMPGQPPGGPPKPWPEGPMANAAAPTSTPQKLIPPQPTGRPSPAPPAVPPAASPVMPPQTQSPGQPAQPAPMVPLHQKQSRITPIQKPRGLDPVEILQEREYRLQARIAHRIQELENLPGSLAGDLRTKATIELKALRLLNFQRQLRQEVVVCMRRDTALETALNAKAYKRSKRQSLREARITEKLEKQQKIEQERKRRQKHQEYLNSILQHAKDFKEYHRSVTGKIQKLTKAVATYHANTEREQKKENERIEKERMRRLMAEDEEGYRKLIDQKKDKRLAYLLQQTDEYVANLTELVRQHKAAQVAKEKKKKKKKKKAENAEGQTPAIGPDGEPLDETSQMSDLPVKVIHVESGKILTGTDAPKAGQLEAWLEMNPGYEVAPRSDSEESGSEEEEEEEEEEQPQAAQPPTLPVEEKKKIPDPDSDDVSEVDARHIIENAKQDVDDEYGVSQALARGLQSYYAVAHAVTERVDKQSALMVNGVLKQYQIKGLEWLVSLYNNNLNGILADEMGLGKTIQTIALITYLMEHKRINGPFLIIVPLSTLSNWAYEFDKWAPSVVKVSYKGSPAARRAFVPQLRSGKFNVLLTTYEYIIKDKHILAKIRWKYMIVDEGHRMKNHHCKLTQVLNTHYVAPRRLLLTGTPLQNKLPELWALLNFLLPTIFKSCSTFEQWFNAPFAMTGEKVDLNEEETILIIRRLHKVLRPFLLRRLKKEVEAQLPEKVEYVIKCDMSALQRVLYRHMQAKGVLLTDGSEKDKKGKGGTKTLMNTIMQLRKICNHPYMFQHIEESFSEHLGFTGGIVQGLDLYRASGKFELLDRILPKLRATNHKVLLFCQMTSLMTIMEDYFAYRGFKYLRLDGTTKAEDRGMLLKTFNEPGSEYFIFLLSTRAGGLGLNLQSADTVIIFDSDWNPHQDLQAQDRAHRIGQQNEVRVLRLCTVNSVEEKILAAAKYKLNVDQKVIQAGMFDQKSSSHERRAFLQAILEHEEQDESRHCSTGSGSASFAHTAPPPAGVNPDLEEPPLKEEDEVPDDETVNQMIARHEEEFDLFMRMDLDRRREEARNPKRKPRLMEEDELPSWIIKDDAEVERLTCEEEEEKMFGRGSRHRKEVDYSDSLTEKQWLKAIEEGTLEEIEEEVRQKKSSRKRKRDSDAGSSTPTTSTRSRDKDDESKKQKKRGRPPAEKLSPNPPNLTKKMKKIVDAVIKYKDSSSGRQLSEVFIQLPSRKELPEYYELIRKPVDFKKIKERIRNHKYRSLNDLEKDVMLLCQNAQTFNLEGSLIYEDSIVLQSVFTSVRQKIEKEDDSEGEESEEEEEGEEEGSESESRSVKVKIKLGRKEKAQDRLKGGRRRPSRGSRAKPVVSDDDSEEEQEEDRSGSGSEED
# assayProcedure: HiBit assay in engineered HT1080 CRISPR knock-in cell, 6 hrs (B series), SMARCA4
# Assay type: cell-based
# conditionLabel: HT-1080, HT1080 CRISPR knock-in cells, 6 hrs incubation; read-out: SMARC A4 HT1080 HiBit Dmax(%)

molecule="C[C@H](NC(=O)[C@@H]1C[C@@H](O)CN1C(=O)[C@@H](n1cc(C2CCC(CN3CCC(c4ccc5c(c4)-n4c(nc(=O)c6c(Cl)cccc64)C54CCCCC4)CC3)CC2)nn1)C(C)(C)C)c1ccc(-c2scnc2CCCN2CCOCC2)cc1 (some centres unmarked) [Compound B108]" measurement="50 to 69%"

Q. Supply measured Dmax of Cc1ncsc1-c1ccc([C@H](C)NC(=O)[C@@H]2C[C@@H](O)CN2C(=O)[C@@H](NC(=O)c2ccc(CN3CCC(c4ccc5c(c4)C(C)(C)c4nc(=O)c6c(Cl)cccc6n4-5)CC3)s2)C(C)(C)C)cc1 [Compound B20] in your reply.
A. 70 to 90%
